meta.source: paper PMC6614837

IC50 overview
tested-on: RNase P holoenzyme from Thermotoga maritima (Thermotoga maritima, UniProt Q9X1H4)
Construct: made in house
Sequence (Q9X1H4 whole entry): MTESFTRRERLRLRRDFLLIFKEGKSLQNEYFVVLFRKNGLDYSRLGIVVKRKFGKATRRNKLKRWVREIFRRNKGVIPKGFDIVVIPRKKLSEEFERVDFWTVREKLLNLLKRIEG
protocol-details: Real-time fluorescence-based RNase P activity assay with bipartite pre-tRNA substrate
Assay type: biochemical
condition-label: fluorescent bipartite pre-tRNA substrate, holoenzyme 33 nM, 10% PEG 200 in place of DMSO

O=C1c2ccccc2C(=O)c2c(O)c(O)cc(O)c21 [Purpurin, 1,2,4-trihydroxyanthraquinone]: 13.1 µM
CN(C)c1ccc(C(=C2C=CC(=[N+](C)C)C=C2)c2ccc(N(C)C)cc2)cc1 [Gentian violet, reference compound]: 16.2 µM

Reported RNase P holoenzyme from Thermotoga maritima (Thermotoga maritima, UniProt Q9X1H4) IC50 for item O=C1C=C2CC3(O)COc4c(ccc(O)c4O)C3=C2C=C1O (stereo not shown) was 87.9 µM

Result for O=C1C=CC(=O)c2c(O)cccc21 [Juglone, 5-hydroxy-1,4-naphthoquinone] , tested on RNase P holoenzyme from Thermotoga maritima (Thermotoga maritima, UniProt Q9X1H4), IC50: 11.9 µM
